The following compounds are shown together with reported growth values.
- Test system: SK-OV-3 ovarian
- assay-summary: NCI-60 one-dose screen, 48 h (100 = growth as untreated, 0 = no growth, -100 = all killed)
- cond: 10 µM unless noted
This is part of a sample that, as a whole, favours compounds with a hit. Of some 83,000 tested, about 20% had one in any assay.

{"columns": ["compound", "unit-symbol", "growth"],
 "data": [
  ["COc1ccc2c(C3=C(c4cn(C)c5ccccc45)C(=O)NC3=O)coc2c1", "%", 47.6],
  ["Cc1nc(-c2cc3ccccc3c(N3CCN(C)CC3)n2)cs1", "%", 97.1],
  ["CCCC(=O)NC(c1cccnc1)c1cc(Cl)c2cccnc2c1O (centres undefined)", "%", 44.4],
  ["COc1ccc(S(=O)(=O)n2cc(C=O)c3ccccc32)c(OC)c1", "%", 97.4]
]}
